- PROTOCOL_NOTES: Ratio of thrombolytic enzyme plasmin to thrombin (FIIa) was evaluated
Kindly supply the reported Ratio values for the records listed here.
Output: the number by itself.

input: Can you share its Ratio? I mean this compound: "CCOC(=O)[C@]1(NS(=O)(=O)Cc2ccccc2)CCCN(CC(=O)N[C@H]2CCCN(C(=N)N)[C@H]2O)C1=O"
output: 3.1

input: What Ratio value was documented for this compound, "N=C(N)N1CCC[C@H](NC(=O)CN2CCC[C@@](N)(Cc3ccccc3)C2=O)[C@H]1O" ?
output: 67.1

input: Need Ratio of "CCOC(=O)[C@]1(NS(=O)(=O)Cc2ccccc2)CCCN(CC(=O)N[C@H]2CCCN(C(=N)N)[C@@H]2O)C1=O" , thanks.
output: 1.8

input: Recorded Ratio for N=C(N)N1CCC[C@H](NC(=O)CN2CCC[C@H](NS(=O)(=O)Cc3ccccc3)C2=O)C1O (stereo not given in full) , please?
output: 128

input: Dear colleague, I am looking for the recorded Ratio of the following compound: "N=C(N)N1CCC[C@H](NC(=O)CN2CCC[C@@](N)(Cc3ccccc3)C2=O)[C@@H]1O"
output: 18.2

====

READOUT: pIC50
pIC50 here is simply -log10 of the concentration when that concentration is written in mol/L.

input: Query pIC50 on Serine protease 1 (Homo sapiens) for "CCOC(=O)[C@]1(NS(=O)(=O)Cc2ccccc2)CCCN(CC(=O)N[C@H]2CCCN(C(=N)N)[C@H]2O)C1=O"
Sequence (P07477 whole entry): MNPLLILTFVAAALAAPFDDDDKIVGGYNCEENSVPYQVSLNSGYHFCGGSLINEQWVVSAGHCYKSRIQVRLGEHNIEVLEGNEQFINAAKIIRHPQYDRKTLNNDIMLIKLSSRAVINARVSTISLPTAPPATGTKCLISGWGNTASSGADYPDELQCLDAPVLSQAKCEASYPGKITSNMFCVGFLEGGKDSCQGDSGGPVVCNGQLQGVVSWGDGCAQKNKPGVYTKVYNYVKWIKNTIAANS
output: 6.69

input: Enter reported pIC50 observed with Serine protease 1 (Homo sapiens) for "CCOC(=O)[C@]1(NS(=O)(=O)Cc2ccccc2)CCCN(CC(=O)N[C@H]2CCCN(C(=N)N)[C@@H]2O)C1=O"
output: 8.70

input: What is its pIC50 for Serine protease 1 (Homo sapiens)? Entry: "N=C(N)N1CCC[C@H](NC(=O)CN2CCC[C@@](N)(Cc3ccccc3)C2=O)[C@H]1O"
output: 6.86

====

Recorded below: IC50, system Coagulation factor X (Homo sapiens, UniProt P00742).
Respond with the bare value in nM.

input: Need IC50 of "CCOC(=O)[C@]1(NS(=O)(=O)Cc2ccccc2)CCCN(CC(=O)N[C@H]2CCCN(C(=N)N)[C@H]2O)C1=O" , thanks.
output: 43.2

input: Item under review: "CCOC(=O)[C@]1(NS(=O)(=O)Cc2ccccc2)CCCN(CC(=O)N[C@H]2CCCN(C(=N)N)[C@@H]2O)C1=O" . Reported IC50?
output: 5.78
